biological target: human FXR (NR1H4) (Homo sapiens (Human)); assay: Human FXR (NR1H4) Assay (luciferase reporter, Indigo Bioscience kit); type: cell-based; settings: read-out: Efficacy (%); for Efficacy (%): efficacy normalized to CDCA set as 100%
Sequence (Q96RI1 whole entry): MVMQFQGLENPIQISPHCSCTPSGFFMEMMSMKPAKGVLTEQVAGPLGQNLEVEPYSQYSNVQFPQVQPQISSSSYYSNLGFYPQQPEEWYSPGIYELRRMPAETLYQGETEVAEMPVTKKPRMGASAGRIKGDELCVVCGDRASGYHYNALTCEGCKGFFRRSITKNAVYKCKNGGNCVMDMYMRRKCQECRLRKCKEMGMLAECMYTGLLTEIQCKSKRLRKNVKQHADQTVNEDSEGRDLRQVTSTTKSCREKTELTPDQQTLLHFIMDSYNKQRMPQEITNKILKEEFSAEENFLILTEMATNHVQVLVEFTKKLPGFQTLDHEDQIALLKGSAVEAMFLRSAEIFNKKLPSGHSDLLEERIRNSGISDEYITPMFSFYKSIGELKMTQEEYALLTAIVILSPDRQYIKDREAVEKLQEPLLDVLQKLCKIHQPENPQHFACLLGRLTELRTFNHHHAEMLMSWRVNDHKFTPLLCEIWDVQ
test-readout: Emax (%)

[[record]]
compound = "CC[C@H]1[C@@H](O)[C@@H]2[C@H](CC[C@]3(C)[C@@H]([C@H](C)CC=Cc4cc(F)c(O)c(F)c4)CC[C@@H]23)[C@@]2(C)CC[C@@H](O)C[C@@H]12"
test_readout = "Emax"
unit_of_measure = "%"
recorded_result = 298

[[record]]
compound = "CC[C@H]1[C@@H](O)[C@@H]2[C@H](CC[C@]3(C)[C@@H]([C@H](C)C/C=C/c4ccc(C(C)C(=O)OC)cc4)CC[C@@H]23)[C@@]2(C)CC[C@@H](O)C[C@@H]12 (stereo partly drawn)"
test_readout = "Emax"
unit_of_measure = "%"
recorded_result = 40

[[record]]
compound = "CC[C@H]1[C@@H](O)[C@@H]2[C@H](CC[C@]3(C)[C@@H]([C@H](C)C/C=C/c4ccc(C(=O)OC)c(O)c4)CC[C@@H]23)[C@@]2(C)CC[C@@H](O)C[C@@H]12"
test_readout = "Emax"
unit_of_measure = "%"
recorded_result = 134


====

biological target: human FXR (NR1H4) (Homo sapiens (Human)); test: Human FXR (NR1H4) Assay (luciferase reporter, Indigo Bioscience kit); type: cell-based; details: read-out: Efficacy (%); for Efficacy (%): efficacy normalized to CDCA set as 100%
This section presents compounds with their documented Emax values.
test-readout: Emax (%)

[[record]]
compound = "CC[C@H]1[C@@H](O)[C@@H]2[C@H](CC[C@]3(C)[C@@H]([C@H](C)C/C=C/c4ccc(F)cc4C(=O)O)CC[C@@H]23)[C@@]2(C)CC[C@@H](O)C[C@@H]12"
test_readout = "Emax"
unit_of_measure = "%"
recorded_result = 376

[[record]]
compound = "CC[C@H]1[C@@H](O)[C@@H]2[C@H](CC[C@]3(C)[C@@H]([C@H](C)CCCc4ccc(C(C)C(=O)O)cc4)CC[C@@H]23)[C@@]2(C)CC[C@@H](O)C[C@@H]12 (stereo partly drawn)"
test_readout = "Emax"
unit_of_measure = "%"
recorded_result = 261

[[record]]
compound = "CC[C@H]1[C@@H](O)[C@@H]2[C@H](CC[C@]3(C)[C@@H]([C@H](C)Cc4nc5c(C(=O)O)cccc5o4)CC[C@@H]23)[C@@]2(C)CC[C@@H](O)C[C@@H]12"
test_readout = "Emax"
unit_of_measure = "%"
recorded_result = 195


====

This section presents compounds with their documented Emax values.
biological target: human FXR (NR1H4) (Homo sapiens (Human)); experiment: Human FXR (NR1H4) Assay (luciferase reporter, Indigo Bioscience kit); type: cell-based; details: read-out: Efficacy (%); for Efficacy (%): efficacy normalized to CDCA set as 100%
test-readout: Emax (%)

[[record]]
substance_smiles = "CC[C@H]1[C@@H](O)[C@@H]2[C@H](CC[C@]3(C)[C@@H]([C@H](C)C/C=C/c4ccccc4C#N)CC[C@@H]23)[C@@]2(C)CC[C@@H](O)C[C@@H]12"
test_readout = "Emax"
unit_of_measure = "%"
recorded_result = 210

[[record]]
substance_smiles = "CC[C@H]1[C@@H](O)[C@@H]2[C@H](CC[C@]3(C)[C@@H]([C@H](C)Cc4nc5cccc(C(=O)O)c5[nH]4)CC[C@@H]23)[C@@]2(C)CC[C@@H](O)C[C@@H]12"
test_readout = "Emax"
unit_of_measure = "%"
recorded_result = 24

[[record]]
substance_smiles = "CC[C@H]1[C@@H](O)[C@@H]2[C@H](CC[C@]3(C)[C@@H]([C@H](C)CCCc4ccc(C(=O)O)c(O)c4)CC[C@@H]23)[C@@]2(C)CC[C@@H](O)C[C@@H]12"
test_readout = "Emax"
unit_of_measure = "%"
recorded_result = 232

